- Test system: rabbit aorta strip contracted with noradrenaline
- experimentNotes: Vasodilative activity in vitro, inhibition of noradrenaline-induced contraction of rabbit aorta strip
- Assay type: cell-based
- measurementParameters: Oryctolagus cuniculus; 50% inhibition of noradrenaline contraction of rabbit aorta strip
endpointLabel: IC50 (nM)

Problem: Endpoint output: IC50 of O=C1c2cc([N+](=O)[O-])ccc2OCN1CCO[N+](=O)[O-] [Example 1] . Value?
Solution: 21

Problem: Another compound: N#Cc1ccc2c(c1)C(=O)N(CCO[N+](=O)[O-])CO2 [Example 4]
Solution: 71

a = O=C1c2ccc(O)cc2OCN1CCO[N+](=O)[O-] [Example 6]
b = CC(=O)Nc1ccc2c(c1)C(=O)N(CCO[N+](=O)[O-])CO2 [Example 2]
c = CN(C)C=Nc1ccc2c(c1)C(=O)N(CCO[N+](=O)[O-])CO2 [Example 3]
d = O=C1c2cc(O)ccc2OCN1CCO[N+](=O)[O-] [Example 5]
Problem: hey, can you rank those compounds up there by IC50? biggest number first please Output the labels ranked as instructed.
Solution: c, b, d, a
(c: 640 nM, b: 270 nM, d: 96 nM, a: 57 nM)
